- protocol notes: chemical genetic growth profiling, strain panel (AID 1159580);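 further: tested at 20 µM; growth read once vehicle control cultures reached saturation at 30 °C; 1 = growth at the plate median or of vehicle wells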
- condition parameters: S. cerevisiae deletion strains, growth OD, locus YNL233W, strain BNI4
Out of some 5,500 compounds screened, about 2,000 (36%) were called active. Roughly 18% stayed inconclusive and do not appear here. No stated cut-off is given here; in the data, active means normalized growth mostly below about 0.91 (no sharp cut-off); inconclusive means no clear call, values can overlap the other calls; inactive means mostly above about 0.92. The list shows a part of the results.
# valid calls are yes = active, no = inactive; nothing else

Query string: What call does the record list for O=C1CN(/N=C\c2ccc([N+](=O)[O-])o2)C(=O)N1 ?
Result string: no

Query string: What call does the record list for COC(=O)[C@H]1[C@H]2C[C@@H]3c4[nH]c5cc(OC)ccc5c4CCN3C[C@H]2C[C@@H](OC(=O)c2cc(OC)c(OC)c(OC)c2)[C@@H]1OC ?
Result string: no

Query string: What call does the record list for CC[C@@H](C(=O)[C@@H](C)[C@@H](O)[C@H](C)[C@@H]1O[C@@H]([C@@H](CC)C(=O)O)CC[C@@H]1C)[C@H]1OC2(C=C[C@@H](O)[C@]3(CC[C@@](C)([C@H]4CC[C@](O)(CC)[C@H](C)O4)O3)O2)[C@H](C)C[C@@H]1C (stereo partly drawn) ?
Result string: yes

Query string: What call does the record list for CC(=O)C1=C(O)C2C3c4c[nH]c5cccc(c45)CC3C(C)(C)N2C1=O (stereo not drawn) ?
Result string: no

Query string: What call does the record list for CC[C@]12CCCN3CCc4c(n(c5ccccc45)[C@](O)(C(=O)OC)C1)[C@@H]32 ?
Result string: no

Query string: What call does the record list for CCCN(CCC)C(=O)C(CCC(=O)O)NC(=O)c1ccccc1 (stereo not drawn) ?
Result string: no

Query string: What call does the record list for C[C@](N)(Cc1ccc(O)c(O)c1)C(=O)O ?
Result string: no

Query string: What call does the record list for CC[C@@H](C(=O)O)[C@@H]1O[C@@H]([C@@H](C)[C@H](O)[C@H](C)C(=O)[C@H](CC)[C@H]2O[C@]3(C=C[C@@H](O)[C@]4(CC[C@@](C)(C5CC[C@](O)(CC)[C@H](C)O5)O4)O3)[C@H](C)C[C@@H]2C)[C@@H](C)C[C@H]1C (stereo partly drawn) ?
Result string: yes

Query string: What call does the record list for COc1ccc(/C=C/c2cc(O)cc(O)c2)cc1 ?
Result string: yes

Query string: What call does the record list for C/C=C/c1ccc(OC)cc1 ?
Result string: no

Query string: What call does the record list for Cc1cccc(CN2CCN(C(c3ccccc3)c3ccc(Cl)cc3)CC2)c1 (stereo not drawn) ?
Result string: yes

Query string: What call does the record list for NC(=O)N/N=C\c1ccc([N+](=O)[O-])o1 ?
Result string: no

* * *

The entries below come with measured normalized growth values attached.
- protocol notes: chemical genetic growth profiling, strain panel (AID 1159580);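 further: tested at 20 µM; growth read once vehicle control cultures reached saturation at 30 °C; 1 = growth at the plate median or of vehicle wells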
- condition parameters: S. cerevisiae deletion strains, growth OD, locus YBR171W, strain sec66, stronger effect = lower value
About 2,000 (36%) of roughly 5,500 compounds were called active. Inconclusive results (about 18%) are left out. Some of the results follow.
Form field (numeric): enter value without unit.

Take a look at these entries with their results.
compound	normalized growth
CC(=O)O[C@H]1CC[C@@]2(C)C(=CCC3C2CC[C@]2(C)C(=O)CCC32)C1 (stereo not given in full)	1.02
CC[C@@H](C(=O)[C@@H](C)[C@@H](O)[C@H](C)[C@@H]1O[C@@H]([C@@H](CC)C(=O)O)CC[C@@H]1C)[C@H]1OC2(C=C[C@@H](O)[C@]3(CC[C@@](C)([C@H]4CC[C@](O)(CC)[C@H](C)O4)O3)O2)[C@H](C)C[C@@H]1C (stereo not given in full)	0.887
CC12CCC3C(CC=C4CC(O)CCC43C)C1CCC2=O (stereo not given)	0.978

Query string: Could you tell me which normalized growth is on file for N[C@@H](CCC(=O)N[C@@H](CCSC(CC(=O)O)C(=O)O)C(=O)NCC(=O)O)C(=O)O (stereo not given in full) ?
Result string: 0.988

Query string: Could you tell me which normalized growth is on file for CCN(CC)CCOC(=O)C(Cc1cccc2ccccc12)CC1CCCO1 (stereo not given) ?
Result string: 1.02

Query string: Could you tell me which normalized growth is on file for C=CC1=C(C)/C(=C/c2[nH]c(Cc3[nH]c(/C=C4\NC(=O)C(C)=C4C=C)c(C)c3CCC(=O)O)c(CCC(=O)O)c2C)NC1=O ?
Result string: 0.982
